Assay: Inhibition of beta-lactamase KPC-2 in Klebsiella pneumoniae assessed as inhibition of hydrolysis of nitrocefin
readoutType: IC50 (nM)

Past entries and their recorded results:
O=C(NCC1CCNCC1)[C@@H]1CC[C@@H]2CN1C(=O)N2OS(=O)(=O)O    77
O=C(N[C@H]1CCCNCC1)[C@@H]1CC[C@@H]2CN1C(=O)N2OS(=O)(=O)O    245
O=C(Nc1ccccn1)[C@@H]1CC[C@@H]2CN1C(=O)N2OS(=O)(=O)O    36
CN1CCC(NC(=O)[C@@H]2CC[C@@H]3CN2C(=O)N3OS(=O)(=O)O)CC1    240
O=C(N[C@H]1CCNC1)[C@@H]1CC[C@@H]2CN1C(=O)N2OS(=O)(=O)O    410
Nc1cccc(NC(=O)[C@@H]2CC[C@@H]3CN2C(=O)N3OS(=O)(=O)O)n1    11
C[n+]1ccc(NC(=O)[C@@H]2CC[C@@H]3CN2C(=O)N3OS(=O)(=O)[O-])cc1    260

(I) O=C(N[C@@H]1CCCNCC1)[C@@H]1CC[C@@H]2CN1C(=O)N2OS(=O)(=O)O
(II) NCc1ccc(NC(=O)[C@@H]2CC[C@@H]3CN2C(=O)N3OS(=O)(=O)O)nc1
Inquiry: Which record shows the lower IC50: the first, I , or the second, II ? Lab note: record the label of whichever item you select.
Reply text: II
